meta.source: PubChem BioAssay AID1159564

Recorded pIC50 by entry
- Test system: L. donovani-infected THP-1 macrophages, intracellular amastigote imaging
- test_method_notes: antileishmanial activity in infected THP-1 macrophages – imaging, THP-1 host macrophages, host toxicity (AID 1159564)
- condition_description: measured here: THP-1 host cell toxicity
pIC50: −log10 of the molar value.

compound | pIC50
COc1ccc(NS(=O)(=O)c2ccc(S(=O)(=O)N(C)C3CCCCC3)cc2)c2ncccc12 | < 4.30
Nc1nccc(-c2csc(Nc3ccc(Cl)cc3)n2)n1 | < 4.30
O=C(NCCc1ccccn1)C(c1cn[nH]c1)N1CCN(c2ccc(Cl)c(Cl)c2)CC1 (configuration not stated) | < 4.30
CCOc1ccc(CC(=O)N2c3ccccc3CC2C(=O)NC)cc1 (configuration not stated) | < 4.30
COc1ccc(OC)c(S(=O)(=O)N(Cc2c(F)cccc2F)[C@@H]2CCN(C#N)C2)c1 | 4.70
COc1ccc2nccc([C@H](O)CN3CC[C@H](NC(=O)c4ccc(Br)cc4)[C@@H](O)C3)c2n1 | < 4.30
CN1CCN(c2nc(-c3ccc(Cl)cc3)c3c(N)n(C)nc3n2)CC1 | 4.40
Cc1[nH]c2ccccc2c(=O)c1Cc1c(C)[nH]c2ccccc2c1=O | < 4.30
O=C(NCCc1csc(-c2cccc(F)c2)n1)c1ccco1 | < 4.30
c1cc(-c2ncc(-c3ccn[nH]3)s2)ccn1 | < 4.30
CCc1cc(C(=O)Nc2nccn2-c2ccccc2)cs1 | 4.49
Cc1[nH]nc(-c2nc3ccccc3[nH]2)c1C(=O)NC1CCCNC1 (configuration not stated) | 5.80
Cc1cc2cc(CNc3ccc4c(c3)OCO4)c(=O)n(CCO)c2cc1C | 4.40
O=c1cc(NCCCNCc2c[nH]c3ccc(Br)cc23)[nH]c2ccccc12 | < 4.30
Cc1ccc2c(c1)-c1onc(C(=O)N3CCCCC3c3cccnc3)c1CO2 (configuration not stated) | 4.40
CC(=O)NC1(c2ccccc2)CCN(CC(=O)Nc2ccccc2-c2ccccc2)CC1 | < 4.30
O=C(NCC1CCCCN1C(=O)c1cccc2ccccc12)c1ccccc1 (configuration not stated) | < 4.30
O=C(Nc1nc(-c2ccc(F)cc2)cs1)c1ccc([N+](=O)[O-])s1 | 5.10
CNc1cc(Cn2c(C(=O)c3cc(C)cc(Cl)c3)c(C(C)C)c(=O)[nH]c2=O)ccn1 | < 4.30
O=C(CCCn1cnc([N+](=O)[O-])n1)Nc1cccc(Cl)c1 | < 4.30
Cc1ccc(NC(=O)c2ccnc(N3CCCC3)c2)cc1-c1ccsc1C(N)=O | < 4.30
CC(C)Oc1ccc(C(=O)Nc2ccc(N3CCOCC3)c(Cl)c2)cc1 | < 4.30

* * *

- System: L. donovani-infected THP-1 macrophages, intracellular amastigote imaging
- test_method_notes: antileishmanial activity in infected THP-1 macrophages – imaging, THP-1 host macrophages, host toxicity (AID 1159564)
- condition_description: measured here: THP-1 host cell toxicity
reported_metric: IC50

compound_structure | result
COCc1cc(Nc2ccc(Cl)cc2)nc(-c2ccccn2)n1 | 20 µM
O=C(C1CCCCC1)N1CCN(c2nnc(-c3ccccc3)c3ccccc23)CC1 | 50 µM
Nc1nc(-c2ccccn2)nc(-n2nc(-c3ccccc3)cc2N)n1 | 10 µM
COCCn1c(-c2ccc3c(c2)OCO3)cnc1NCc1ccccc1OC | 40 µM
Cc1ccc(S(=O)(=O)Nc2ccc(CN3CCN(C(=O)c4cccc(C#N)c4)CC3)cc2)cc1 | > 50 µM

* * *

Recorded pIC50 by entry
- Test system: L. donovani-infected THP-1 macrophages, intracellular amastigote imaging
- test_method_notes: antileishmanial activity in infected THP-1 macrophages – imaging, THP-1 host macrophages, host toxicity (AID 1159564)
- condition_description: measured here: THP-1 host cell toxicity
pIC50: −log10 of the molar value.
reported_metric: pIC50

compound | censor_symbol | quantitative_readout
Cc1ccc(NC(=O)C(C)n2nc([N+](=O)[O-])c(Br)c2C)cc1Cl (stereo not given) | < | 4.30
CN(C)Cc1ccc(N2CCC(NS(=O)(=O)c3ccc(Cl)cc3)CC2)cc1 | = | 4.60
OC1CCC(Nc2nccc(-c3sc(C4CCOCC4)nc3-c3ccc(F)c(F)c3)n2)CC1 (stereo not given) | = | 4.70
Cc1ccc2c(c1)SC(C(=O)Nc1n[nH]c(-c3ccccn3)n1)C2 (stereo not given) | = | 4.60
NC(=O)c1cc(F)ccc1Nc1nc(NC2CCC(O)CC2)ncc1Br (stereo not given) | = | 6.40
CCc1cccc(CC)c1-n1c(SCC(=O)NC(=O)NCc2ccco2)nnc1-c1cccnc1 | < | 4.30
O=[N+]([O-])c1ccc(-c2nnn(-c3ccc(Cl)cc3)n2)o1 | < | 4.30
Cc1ncsc1CNc1cnc(-c2ccc3c(c2)OCCO3)c(-c2cnn(C)c2)c1 | = | 4.80
Cc1sc(C)c(C(F)(F)F)c1CNCCCNc1cc(=O)c2ccccc2[nH]1 | = | 4.49
CC(C)Nc1nc(Cl)nc2ccccc12 | = | 4.70

* * *

- System: L. donovani-infected THP-1 macrophages, intracellular amastigote imaging
- test_method_notes: antileishmanial activity in infected THP-1 macrophages – imaging, THP-1 host macrophages, host toxicity (AID 1159564)
- condition_description: measured here: THP-1 host cell toxicity
reported_metric: IC50

compound | result
COCCn1cnc2cc(NC(=O)C3CCCCC3)cc(C(=O)N3CCc4sccc4C3)c21 | > 50 µM
O=C(c1ccc(Cl)cc1)c1ccc(OC(=O)N2CCOCC2)cc1 | > 50 µM
CCN(CC)c1ccc(S(=O)(=O)N(CC)CC)c2nonc12 | 16 µM
OCCCNc1nc(Nc2ccncc2)nc2ccccc12 | > 50 µM
COc1ccc([N+](=O)[O-])cc1NC(=O)Nc1cccc(Cl)c1 | 50 µM
CC(=O)NCCNc1cc(-c2ccnc(Nc3cccc(Cl)c3)n2)ccn1 | 0.1 µM
O=C(Nc1nc(-c2ccccn2)cs1)N1C[C@H]2C[C@@]2(c2ccccc2)C1 | 7.9 µM
CN(Cc1nc2ccc(C(=O)NCC3CCCCC3)cc2[nH]1)C1CCCc2cccnc21 (stereo unspecified) | 6.3 µM
CN(CCOc1ccc(Cl)cc1)Cc1nc(N)nc(N(C)C)n1 | > 50 µM
CC(=O)Nc1cccc(Nc2ncnc3nc[nH]c23)c1 | 10 µM
COc1ccc(Cl)cc1CC(=O)Nc1n[nH]c(-c2ccccn2)n1 | > 50 µM

* * *

Recorded IC50 by entry
- Test system: L. donovani-infected THP-1 macrophages, intracellular amastigote imaging
- test_method_notes: antileishmanial activity in infected THP-1 macrophages – imaging, THP-1 host macrophages, host toxicity (AID 1159564)
- condition_description: measured here: THP-1 host cell toxicity

molecule | IC50
Cc1ccc(CNC2CCN(C[C@@H]3Cn4c(=O)ccc5ccc(=O)n3c54)CC2)cc1F | > 50 µM
O=C(Nc1nc(-c2ccccn2)cs1)c1ccccc1-n1cnnn1 | 5 µM
CCc1nn(-c2ncc(F)c(NC(C)C)n2)c(N)c1C1CCCCC1 | 16 µM
N#Cc1ccccc1S(=O)(=O)N1CCN(C(=O)CNC(=O)c2ccc3c(c2)OCO3)CC1 | > 50 µM
CNC(=O)C1Cc2ccccc2N1C(=O)Cc1ccc(F)cc1 (stereo not given) | > 50 µM

* * *

- Test system: L. donovani-infected THP-1 macrophages, intracellular amastigote imaging
- test_method_notes: antileishmanial activity in infected THP-1 macrophages – imaging, THP-1 host macrophages, host toxicity (AID 1159564)
- condition_description: measured here: THP-1 host cell toxicity
Returns: string. Value is 1.0 if measured IC50 is below 20 µM, and 0.0 if it is greater than or equal to it.

compound | class_label
C[C@@H](Oc1cc(-n2cnc3ccc(CC(O)CO)cc32)sc1C(N)=O)c1ccccc1Cl (stereo not given in full) | 0.0
CCC(CC)C(=O)Nc1cccc(C(=O)Nc2nnc(C3CCCCC3)s2)c1 | 0.0
Cc1cccnc1NC(=O)c1cccc(OCc2c(C)noc2C)c1 | 1.0
O=C(CSc1nnc(-c2ccc3c(c2)OCO3)o1)N(Cc1ccco1)CC(F)(F)F | 0.0
c1ccc2sc(Nc3nc4ncccc4[nH]3)nc2c1 | 1.0
Cc1nc(C(=O)Nc2ccc3c(c2)OCO3)nn1-c1ccc(Cl)cc1 | 1.0
Cc1ccc2ccc(C(Nc3ccccn3)c3cccnc3)c(O)c2n1 (stereo not given) | 0.0
Cc1nc(N2CCC(C(=O)N3CCC(O)(c4cccnc4)CC3)CC2)nc2ccc(C(C)C)cc12 | 0.0
Cc1nn(-c2ccccc2)nc1CNC(=O)CN(Cc1ccccn1)Cc1ccccn1 | 0.0
N#Cc1cccc(CN2CCC(c3nc(-c4ccc(C(F)(F)F)nc4)no3)CC2)c1 | 0.0

* * *

Recorded pIC50 by entry
- Test system: L. donovani-infected THP-1 macrophages, intracellular amastigote imaging
- test_method_notes: antileishmanial activity in infected THP-1 macrophages – imaging, THP-1 host macrophages, host toxicity (AID 1159564)
- condition_description: measured here: THP-1 host cell toxicity
pIC50: −log10 of the molar value.

compound | censor_symbol | pIC50
Cc1[nH]nc(Nc2ccnc3[nH]ccc23)c1C | < | 4.30
N#Cc1cccc(Nc2nccc(N3CCC(NS(=O)(=O)c4cccc(C#N)c4)CC3)n2)c1 | < | 4.30
Cc1c(Nc2cc(C3CC3)[nH]n2)ccc(C#N)c1Cl | = | 4.60
O=C1NCCn2ccc(Nc3nc(NC4CCC(O)CC4)ncc3Cl)c21 (stereo unspecified) | = | 6.40
Cn1nc(-c2ccc(NC(=O)Cc3ccccc3Cl)cc2)c2c(N)ncnc21 | < | 4.30
COc1cccc(C(=O)[C@H]2C[C@@H]2CN(Cc2cccnc2)Cc2cccnc2)c1 | = | 4.40
